# experiment.notes: log P by HPLC on a reversed-phase column (C 18), EEC Directive 79/831 Annex V.A8
# Format: physicochemical
# applied.conditions: HPLC reversed-phase C 18, 40° C., 0.1% aqueous formic acid and acetonitrile, linear gradient 10% to 95% acetonitrile
assay.readout: logP
// response body must contain only the number

State its logP for this molecule: Cc1cc(-c2ccccc2Nc2cc3ccc(F)c(F)c3nc2C)cnc1F [I.031]
3.69

State its logP for this molecule: Cc1nc2c(F)c(F)ccc2cc1Nc1ccccc1-c1cccnc1Cl [I.038]
3.43

State its logP for this molecule: Cc1nc2c(F)c(F)ccc2cc1Cc1cccc(F)c1-c1cncnc1 [I.011]
2.76

State its logP for this molecule: COc1cc(-c2c(F)cccc2Nc2cc3ccc(F)c(F)c3nc2C)ccn1 [I.083]
3.71

State its logP for this molecule: Cc1nc2c(F)c(F)ccc2cc1Nc1c(F)cccc1-c1ccncc1F [I.048]
3.04

State its logP for this molecule: COc1cc(-c2ccccc2Nc2cc3ccc(F)c(F)c3nc2C)ccn1 [I.028]
3.56

State its logP for this molecule: CCc1ccncc1-c1ccccc1Nc1cc2ccc(F)c(F)c2nc1C [I.023]
2.08

State its logP for this molecule: CCCc1cnccc1-c1c(F)cccc1Nc1cc2ccc(F)c(F)c2nc1C [I.110]
2.89

State its logP for this molecule: Cc1nc2c(F)c(F)ccc2cc1Cc1cccc(F)c1-c1ccncc1F [I.041]
3.40

State its logP for this molecule: CCOc1ncccc1-c1ccccc1Nc1cc2ccc(F)c(F)c2nc1C [I.066]
4.24

State its logP for this molecule: CCCc1cnccc1-c1ccccc1Nc1cc2ccc(F)c(F)c2nc1C [I.061]
2.31

State its logP for this molecule: Cc1nc2c(F)c(F)ccc2cc1Nc1cccc(F)c1-c1ccnnc1 [I.016]
2.44

State its logP for this molecule: Cc1nc2c(F)c(F)ccc2cc1Nc1cccc(F)c1-c1ccnc(F)c1F [I.101]
3.81

State its logP for this molecule: Cc1nc2c(F)c(F)ccc2cc1Nc1cccc(F)c1-c1cccnc1Cl [I.094]
3.50

State its logP for this molecule: Cc1nc2c(F)c(F)ccc2cc1Nc1cccc(F)c1-c1cccnc1 [I.009]
2.28

State its logP for this molecule: Cc1nc2c(F)c(F)ccc2cc1Nc1ccccc1-c1cnccc1C1CC1 [I.057]
2.05

State its logP for this molecule: Cc1nc2c(F)c(F)ccc2cc1Nc1ccccc1-c1cc(F)nc(F)c1 [I.054]
3.91

State its logP for this molecule: Cc1nc2c(F)c(F)ccc2cc1Nc1cccc(F)c1C1=CCCCO1 [I.018]
4.44

State its logP for this molecule: Cc1cc(-c2ccccc2Nc2cc3ccc(F)c(F)c3nc2C)cnc1Cl [I.087]
3.91

State its logP for this molecule: COc1cccc(-c2c(F)cccc2Cc2cc3ccc(F)c(F)c3nc2C)n1 [I.074]
3.79

State its logP for this molecule: COc1ncc(-c2c(F)cccc2Cc2cc3ccc(F)c(F)c3nc2C)cn1 [I.078]
3.25

State its logP for this molecule: COc1c(-c2c(F)cccc2Nc2cc3ccc(F)c(F)c3nc2C)ccnc1F [I.117]
3.75

State its logP for this molecule: COc1c(-c2ccccc2Nc2cc3ccc(F)c(F)c3nc2C)ccnc1F [I.079]
3.72

State its logP for this molecule: Cc1nc2c(F)c(F)ccc2cc1Nc1ccccc1-c1ccc(F)nc1F [I.055]
3.81

State its logP for this molecule: COc1ncc(-c2c(F)cccc2Nc2cc3ccc(F)c(F)c3nc2C)cn1 [I.088]
3.08

State its logP for this molecule: Cc1nc2c(F)c(F)ccc2cc1Nc1cccc(F)c1-c1ccc(F)nc1F [I.103]
3.84

State its logP for this molecule: COc1cc(-c2ccccc2Nc2cc3ccc(F)c(F)c3nc2C)c(Br)cn1 [I.135]
4.36

State its logP for this molecule: Cc1nc2c(F)c(F)ccc2cc1Nc1cccc(F)c1-c1cncc(C(F)(F)F)c1 [I.133]
3.75

State its logP for this molecule: Cc1nc2c(F)c(F)ccc2nc1Cc1cccc(F)c1-c1ccncc1F [I.050]
3.31

State its logP for this molecule: Cc1nc2c(F)c(F)ccc2cc1Nc1ccccc1-c1ccnc(F)c1F [I.053]
3.69

State its logP for this molecule: Cc1cncc(-c2c(F)cccc2Nc2cc3ccc(F)c(F)c3nc2C)c1 [I.032]
2.26

State its logP for this molecule: Cc1nc2c(F)c(F)ccc2cc1Nc1ccccc1-c1cccnc1C1CC1 [I.059]
2.80

State its logP for this molecule: Cc1nc2c(F)c(F)ccc2cc1Nc1ccc(F)cc1-c1ccncc1F [I.049]
3.24

State its logP for this molecule: Cc1nc2c(F)c(F)ccc2cc1Nc1ccccc1-c1ccc(OC(C)C)nc1 [I.107]
4.43

State its logP for this molecule: Cc1nc2c(F)c(F)ccc2cc1Nc1cccc(F)c1-c1cc(F)cnc1F [I.136]
3.71

State its logP for this molecule: Cc1nc2c(F)c(F)ccc2cc1Nc1cccc(F)c1-c1ccncc1F [I.051]
3.29

State its logP for this molecule: Cc1nc2c(F)c(F)ccc2cc1Nc1cccc(F)c1-c1cccnc1F [I.047]
3.35
